# assay-info: Toxicity liver stage against HepG2, at 10uM
# Assay type: cell-based
# Parameters: test concentration 10 uM, cell line HepG2-A16-CD81EGFP
# condition-notes: human, HepG2-A16-CD81EGFP cells; read-out: INHIBITION
measurement-type: cytotoxicity at 10 µM (%)
Report the figure in % without appending any unit label.

# annotated cases, reported cytotoxicity at 10 µM shown
compound | assay-value
CC(C)c1ccccc1OCCNC(=O)N1CCC(CC(N)=O)CC1 | 3.2
O=C(Cn1cccn1)NCC1CCCN(Cc2ccccc2)C1 (centres undefined) | -16.2
CCOC(=O)c1sc(NC(=O)CCCC(=O)O)c(C#N)c1C | 11.6
CCC(C)(CNC(=O)c1ccon1)NC(=O)c1ccon1 (centres undefined) | -0.903
COc1ccc(CC(=O)NCCCc2nnc3nc(C)cc(C)n23)cc1 | 4.45
CC(C)CNC(=O)CNC(=O)Nc1cccc(Cl)c1-n1cccn1 | -2.45

Continue with the next compound.
Query: cytotoxicity at 10 µM; subject: COc1ccc2[nH]c3c(N(C)CC4OCCO4)ncnc3c2c1 36
